Cited source: ChEMBL document CHEMBL5512658

- System: Hepatitis B virus core protein
- Assay: Selectivity index, ratio of CC50 for human HepG2 cells to IC50 for Hepatitis B virus core protein expressed in HEK293T cells
- Type: toxicity, cell-based
- Condition: read-out: Ratio CC50/IC50
Measured selectivity ratio accompanies every entry in the list below.

COc1ccc(Cc2nc3ccccc3n2C(C)C)cc1; 0.96
COc1ccc(Cc2nc3ccccc3n2C[C@H](O)COc2ccccc2)cc1; 6.18
COc1ccc(Sc2nc3ccccc3n2CCO)cc1; 165
COc1ccc(Sc2nc3ccccc3[nH]2)cc1; 7.53
COc1ccc(Cc2nc3ccccc3n2CCCOc2ccccc2)cc1; 10.2
OCCn1c(Sc2ccc(Cl)cc2)nc2ccccc21; 14.1
Cc1ccc(Sc2nc3ccccc3[nH]2)cc1; 8.96
Fc1cc(F)cc(Sc2nc3ccccc3[nH]2)c1; > 5.07

Form: compound = `Fc1ccc(Sc2nc3ccccc3[nH]2)cc1` ; selectivity ratio = 1.11

Form: compound = `COc1ccc(Cc2nc3ccccc3n2C2CCC2)cc1` ; selectivity ratio = 3.29

Form: compound = COCC(Cn1c(Cc2ccc(OC)cc2)nc2ccccc21)OC (stereo not drawn) ; selectivity ratio = > 5.06

Form: compound = `COc1ccc(Cc2nc3ccccc3n2C(C)=O)cc1` ; selectivity ratio = 27.2

Form: compound = `CCCCn1c(Cc2ccc(OC)cc2)nc2ccccc21` ; selectivity ratio = > 15.4

---

- Test system: Hepatitis B virus core protein
- Assay: Selectivity index, ratio of CC50 for human HepG2 cells to IC50 for Hepatitis B virus core protein expressed in HEK293T cells
- Format: toxicity, cell-based
- Condition: read-out: Ratio CC50/IC50
Outcome label depends on selectivity ratio relative to 6: at/above gives satisfied, below gives not satisfied.

COc1ccc(Cc2nc3ccccc3n2CCCCCCO)cc1; satisfied

Does the compound `COc1ccc(Cc2nc3ccccc3[nH]2)cc1` have recorded selectivity ratio that is 6 or more?
satisfied

Does the compound `CCc1ccc(Sc2nc3ccccc3n2CCO)cc1` have recorded selectivity ratio that is 6 or more?
satisfied

Does the compound `COc1ccc(Cc2nc3ccccc3n2CCCBr)cc1` have recorded selectivity ratio that is 6 or more?
not satisfied

Does the compound `COc1ccc(Cc2nc3ccccc3n2CCCNc2ccccc2)cc1` have recorded selectivity ratio that is 6 or more?
satisfied

Does the compound `Clc1ccc(Sc2nc3ccccc3[nH]2)cc1Cl` have recorded selectivity ratio that is 6 or more?
satisfied

Does the compound `Brc1ccc(Sc2nc3ccccc3[nH]2)cc1` have recorded selectivity ratio that is 6 or more?
satisfied

Does the compound `COc1ccc(Nc2nc3ccccc3[nH]2)cc1` have recorded selectivity ratio that is 6 or more?
satisfied

Does the compound COc1ccc(Cc2nc3ccccc3n2CC(O)CO)cc1 (stereo unspecified) have recorded selectivity ratio that is 6 or more?
satisfied

Does the compound `COc1ccc(Sc2nc3ccccc3n2C)cc1` have recorded selectivity ratio that is 6 or more?
not satisfied

Does the compound `CCOC(=O)Cn1c(Cc2ccc(OC)cc2)nc2ccccc21` have recorded selectivity ratio that is 6 or more?
not satisfied

Does the compound `OCCn1c(Sc2ccc(Br)cc2)nc2ccccc21` have recorded selectivity ratio that is 6 or more?
satisfied

Does the compound `OCCn1c(Sc2ccc(Cl)c(Cl)c2)nc2ccccc21` have recorded selectivity ratio that is 6 or more?
satisfied

Does the compound `COc1ccc(Cc2nc3ccccc3n2CCCCO)cc1` have recorded selectivity ratio that is 6 or more?
satisfied

Does the compound `COc1ccc(Cc2nc3ccccc3n2CCCCCO)cc1` have recorded selectivity ratio that is 6 or more?
satisfied

Does the compound `Clc1ccc(Sc2nc3ccccc3[nH]2)cc1` have recorded selectivity ratio that is 6 or more?
not satisfied

Does the compound `COc1ccc(Cc2nc3ccccc3n2C[C@@H](O)COc2ccccc2)cc1` have recorded selectivity ratio that is 6 or more?
not satisfied

Does the compound `COc1ccc(Cc2nc3ccccc3n2CCCCc2ccccc2)cc1` have recorded selectivity ratio that is 6 or more?
not satisfied

Does the compound `COc1ccc(Cc2nc3ccccc3n2CCO)cc1` have recorded selectivity ratio that is 6 or more?
satisfied

Does the compound `COc1ccc(CCCc2nc3ccccc3[nH]2)cc1` have recorded selectivity ratio that is 6 or more?
not satisfied

---

- Tested on: Hepatitis B virus
- Assay: Antiviral activity against HBV infected in human HepAD38 cells assessed as inhibition of viral replication incubated for 6 days by qPCR analysis
- Format: functional, organism-based
- Condition: HePAD38, 144 h
Recorded Endpoint: EC50 (nM)
Give the quantity in nM, number only.

Form: compound = `COc1ccccc1/C(Br)=C(/NC(=O)c1ccc([N+](=O)[O-])cc1)C(=O)N1CCCCC1` ; EC50 = 200

---

- Assay Target: Core antigen (Hepatitis B virus, UniProt Q03732)
- Sequence (Q03732 whole entry): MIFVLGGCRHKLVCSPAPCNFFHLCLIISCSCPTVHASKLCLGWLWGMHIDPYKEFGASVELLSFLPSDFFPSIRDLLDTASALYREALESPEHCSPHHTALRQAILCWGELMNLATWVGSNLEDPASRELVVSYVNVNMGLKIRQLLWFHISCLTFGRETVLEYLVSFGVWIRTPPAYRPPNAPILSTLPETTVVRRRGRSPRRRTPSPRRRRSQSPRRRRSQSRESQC
- Assay: Inhibition of Hepatitis B virus core protein expressed in HBC cells derived from HEK293T cells assessed as reduction in HBcAg level incubated for 6 hrs by Nano-glo luciferase assay
- Format: cell-based
- Condition: read-out: IC50
pIC50: −log10 of the molar value.
Outcome label depends on pIC50 relative to 5: at/above gives true (1), below gives false (0).

COc1ccc(Cc2nc3ccccc3o2)cc1; false (0)
Brc1ccc(Sc2nc3ccccc3[nH]2)cc1; true (1)

Does the compound `OCCn1c(Sc2ccc(Br)cc2)nc2ccccc21` have recorded pIC50 that is 5 or more?
true (1)

Does the compound `COc1ccc(Cc2nc3ccccc3n2CCCCc2ccccc2)cc1` have recorded pIC50 that is 5 or more?
false (0)

---

Measured log10 of IC50 accompanies every entry in the list below.
- Assay Target: Core antigen (Hepatitis B virus, UniProt Q03732)
- Assay: Inhibition of Hepatitis B virus core protein expressed in HBC cells derived from HEK293T cells assessed as reduction in HBcAg level incubated for 6 hrs by Nano-glo luciferase assay
- Type: cell-based
- Condition: read-out: IC50
Give log10 of IC50, with IC50 taken in µM.

Solved cases below.
COc1ccc(Cc2nc3ccccc3n2CCCOc2cccnc2)cc1; 0.08
COc1ccc(CCCc2nc3ccccc3[nH]2)cc1; 1.36
COc1ccc(S(=O)(=O)c2nc3ccccc3[nH]2)cc1; 1.43

Core antigen (Hepatitis B virus, UniProt Q03732) log10 of IC50 of `COc1ccc(Cc2nc3ccccc3n2C[C@H](O)COc2ccccc2)cc1` is 0.39

Core antigen (Hepatitis B virus, UniProt Q03732) log10 of IC50 of `COc1ccc(Cc2nc3ccccc3n2CCCOC(C)=O)cc1` is 1.15

Core antigen (Hepatitis B virus, UniProt Q03732) log10 of IC50 of `COc1ccc(C2(c3nc4ccccc4[nH]3)CC2)cc1` is 1.34

---

- Assay Target: Core antigen (Hepatitis B virus)
- Assay: Inhibition of Hepatitis B virus core protein expressed in HBC cells derived from HEK293T cells assessed as reduction in HBcAg level incubated for 6 hrs by Nano-glo luciferase assay
- Type: cell-based
- Condition: read-out: IC50
pIC50: −log10 of the molar value.
Outcome label depends on pIC50 relative to 5: at/above gives Fulfilled, below gives Not fulfilled.

Worked examples follow.
COc1ccc(Cc2nc3ccccc3n2C(C)C)cc1; Not fulfilled
COc1ccc(Cc2nc3ccccc3n2CCCCCO)cc1; Fulfilled
CCc1ccc(Sc2nc3ccccc3[nH]2)cc1; Fulfilled
Fc1cc(F)cc(Sc2nc3ccccc3[nH]2)c1; Not fulfilled
Clc1ccc(Sc2nc3ccccc3[nH]2)cc1; Fulfilled

Does the molecule `COc1ccc(Cc2nc3ccccc3n2CCCO)cc1` have recorded pIC50 that is 5 or more?
Fulfilled

Does the molecule `COc1ccc(Cc2nc3ccccc3n2C[C@@H](O)COc2ccccc2)cc1` have recorded pIC50 that is 5 or more?
Fulfilled

Does the molecule `OCCn1c(Sc2ccc(Cl)cc2)nc2ccccc21` have recorded pIC50 that is 5 or more?
Fulfilled

Does the molecule `OCCn1c(Sc2ccc(Cl)c(Cl)c2)nc2ccccc21` have recorded pIC50 that is 5 or more?
Fulfilled

Does the molecule COc1ccc(Cc2nc3ccccc3n2CC(O)COc2ccccc2)cc1 (stereo not drawn) have recorded pIC50 that is 5 or more?
Fulfilled

Does the molecule `CCCCn1c(Cc2ccc(OC)cc2)nc2ccccc21` have recorded pIC50 that is 5 or more?
Fulfilled

Does the molecule `COc1ccc(Sc2nc3ccccc3n2C)cc1` have recorded pIC50 that is 5 or more?
Fulfilled

---

- Test system: Hepatitis B virus
- Assay: Antiviral activity against HBV infected in human HePAD38 cells assessed as reduction in intracellular core HBV DNA level media replaced for every 2 to 3 days incubated for 7 days by Western blot analysis
- Type: functional, organism-based
Measured EC50 accompanies every entry in the list below.
Give the quantity in µM, number only.

COc1ccc(Sc2nc3ccccc3n2CCCCCO)cc1; 5.7
COc1ccc(Cc2nc3ccccc3n2CC(O)COc2ccccc2)cc1 (centres undefined); 0.07
COc1ccc(Sc2nc3ccccc3n2CCO)cc1; 2.24
OCCn1c(Sc2ccc(Br)cc2)nc2ccccc21; 1.99
COc1ccc(Cc2nc3ccccc3[nH]2)cc1; 11.9
COc1ccc(Cc2nc3ccccc3n2C(C)=O)cc1; 16.1
OCCn1c(Sc2ccc(Cl)cc2)nc2ccccc21; 6.37
COc1ccc(Cc2nc3ccccc3n2CCCCCO)cc1; 15.9

Attention now turns to another entry.
Hepatitis B virus EC50 of `COc1ccc(Sc2nc3ccccc3[nH]2)cc1` is 2
